experiment_description: Inhibition of host cell cap-dependent translation in Cricetinae BSR-T7 cells assessed as suppression of pSV40-LUC activity at 0.1 to 10 uM after 20 hrs
Assay type: functional, cell-based

{"structure_smiles_string": "O=C(NCCc1ccncc1)C1CCN(C(=O)c2ccccc2NCc2ccc(Cl)cc2)CC1", "output_unit": "nM", "IC50": 1000}
{"structure_smiles_string": "O=C(NCCc1ccncc1)C1CCN(C(=O)c2cc3ccccc3n2Cc2ccc(Cl)cc2)CC1", "output_unit": "nM", "IC50": 100}
{"structure_smiles_string": "O=C(NCCc1ccncc1)C1CCN(C(=O)c2ccccc2Nc2ccc(Cl)cc2)CC1", "output_unit": "nM", "IC50": 2200}

###

experiment_description: Half life in BALB/c mouse liver microsomes at 1 uM in presence of NADPH by HPLC-MS/MS method
Assay type: ADME
condition: BALB/c, liver microsomes

{"structure_smiles_string": "O=C(NCCc1ccncc1)C1CCN(C(=O)c2cc3ccccc3n2Cc2ccc(Cl)cc2)CC1", "output_unit": "min", "half-life at 1 µM": 9}
{"structure_smiles_string": "O=C(NCCc1ccncc1)C1CCN(C(=O)c2cccn2Cc2ccc(Cl)cc2)CC1", "output_unit": "min", "half-life at 1 µM": 3}

###

# t1/2 annotations
System: Liver
experiment_description: Half life in BALB/c mouse liver microsomes at 1 uM in presence of NADPH by HPLC-MS/MS method
Assay type: ADME
condition: microsomes, 1 µM

{"structure_smiles_string": "O=C(NCCc1ccncc1)C1CCN(C(=O)c2ccccc2Cc2ccc(Cl)cc2)CC1", "t1/2 (min)": 3}
{"structure_smiles_string": "O=C(NCCc1ccncc1)C1CCN(C(=O)c2ccccc2NCc2ccc(Cl)cc2)CC1", "t1/2 (min)": 15}
{"structure_smiles_string": "O=C(NCCc1ccncc1)C1CCN(C(=O)c2ccccc2Oc2ccc(Cl)cc2)CC1", "t1/2 (min)": 18}
{"structure_smiles_string": "O=C(NCCc1ccncc1)C1CCN(C(=O)c2ccccc2Nc2ccc(Cl)cc2)CC1", "t1/2 (min)": 19}

###

# CC50 annotations
experiment_description: Cytotoxicity against human BE(2)-C cells after 18 to 20 hrs by MTT assay
Assay type: cell-based
value_kind: CC50 (µM)

{"structure_smiles_string": "O=C(NCCc1ccncc1)C1CCN(C(=O)Cc2ccc(Cl)cc2)CC1", "comparison_sign": ">", "endpoint_result": 100}
{"structure_smiles_string": "O=C(NCCc1ccncc1)C1CCN(C(=O)c2cccc3c2[nH]c2ccc(Cl)cc23)CC1", "comparison_sign": "=", "endpoint_result": 66.1}
{"structure_smiles_string": "O=C(NCCc1ccncc1)C1CCN(C(=O)c2ccccc2Cc2ccc(Cl)cc2)CC1", "comparison_sign": "=", "endpoint_result": 70.7}
{"structure_smiles_string": "O=C(NCCc1ccncc1)C1CCN(C(=O)c2cccn2Cc2ccc(Cl)cc2)CC1", "comparison_sign": ">", "endpoint_result": 100}
{"structure_smiles_string": "CN(c1ccc(Cl)cc1)c1ccccc1C(=O)N1CCC(C(=O)NCCc2ccncc2)CC1", "comparison_sign": ">", "endpoint_result": 100}
{"structure_smiles_string": "O=C(NCCc1ccncc1)C1CCN(C(=O)c2ccccc2NCCc2ccc(Cl)cc2)CC1", "comparison_sign": "=", "endpoint_result": 86}
{"structure_smiles_string": "O=C(NCCc1ccncc1)C1CCN(C(=O)c2ccccc2NCc2ccc(Cl)cc2)CC1", "comparison_sign": "=", "endpoint_result": 75.2}
{"structure_smiles_string": "O=C(NCCc1ccncc1)C1CCN(C(=O)NCc2ccc(Cl)cc2)CC1", "comparison_sign": ">", "endpoint_result": 100}
{"structure_smiles_string": "O=C(NCCc1ccncc1)C1CCN(C(=O)[C@H]2CCCN2Cc2ccc(Cl)cc2)CC1", "comparison_sign": ">", "endpoint_result": 100}
{"structure_smiles_string": "O=C(NCCc1ccncc1)C1CCN(C(=O)CCc2ccc(Cl)cc2)CC1", "comparison_sign": ">", "endpoint_result": 100}

###

experiment_description: Kinetic solubility of the compound in WEEV replication assay medium in presence of 10% fetal bovine serum
Type: physicochemical
condition: serum
# Kinetic_solubility annotations
value_kind: Kinetic_solubility

{"structure_smiles_string": "O=C(NCCc1ccncc1)C1CCN(C(=O)c2ccccc2Nc2ccccc2)CC1", "endpoint_result": "> 250 µg/mL"}
{"structure_smiles_string": "O=C(NCCc1ccncc1)C1CCN(C(=O)c2ccccc2NCc2ccccc2)CC1", "endpoint_result": "> 250 µg/mL"}
{"structure_smiles_string": "CN(c1ccc(Cl)cc1)c1ccccc1C(=O)N1CCC(C(=O)NCCc2ccncc2)CC1", "endpoint_result": "> 250 µg/mL"}
{"structure_smiles_string": "O=C(NCCc1ccncc1)C1CCN(C(=O)c2ccccc2NCCc2ccc(Cl)cc2)CC1", "endpoint_result": "> 250 µg/mL"}
{"structure_smiles_string": "O=C(NCCc1ccncc1)C1CCN(C(=O)c2ccccc2Nc2ccc(Cl)cc2)CC1", "endpoint_result": "> 250 µg/mL"}
{"structure_smiles_string": "O=C(c1ccc(Cl)cc1)c1ccccc1C(=O)N1CCC(C(=O)NCCc2ccncc2)CC1", "endpoint_result": "> 250 µg/mL"}
{"structure_smiles_string": "O=C(NCCc1ccncc1)C1CCN(C(=O)c2ccccc2NCc2ccc(Cl)cc2)CC1", "endpoint_result": "> 250 µg/mL"}

###

experiment_description: Cytotoxicity against human BE(2)-C cells after 18 to 20 hrs by MTT assay
Type: cell-based
# CC50 annotations

{"structure_smiles_string": "O=C(NCCc1ccncc1)C1CCN(C(=O)c2ccccc2NCc2ccccc2)CC1", "CC50": "92.2 µM"}
{"structure_smiles_string": "O=C(NCCc1ccncc1)C1CCN(c2cc(=O)n(-c3ccc(Cl)cc3)c3ccccc23)CC1", "CC50": "> 100 µM"}
{"structure_smiles_string": "O=C(NCCc1ccncc1)C1CCN(C(=O)[C@@H]2CCCN2Cc2ccc(Cl)cc2)CC1", "CC50": "91.6 µM"}
{"structure_smiles_string": "O=C(NCCc1ccncc1)C1CCN(C(=O)[C@H]2CCCN2C(=O)c2ccc(Cl)cc2)CC1", "CC50": "> 100 µM"}
{"structure_smiles_string": "O=C(NCCc1ccncc1)C1CCN(C(=O)c2ccccc2Nc2ccc(Cl)cc2)CC1", "CC50": "> 100 µM"}

###

# pIC50 annotations
Tested on: Fort Morgan virus
experiment_description: Antiviral activity against Fort Morgan virus infected in HEK293 cells assessed as reduction of viral titer by plaque reduction assay relative to untreated control
Type: functional, cell-based
pIC50: −log10 of the molar value.
value_kind: pIC50

{"structure_smiles_string": "O=C(NCCc1ccncc1)C1CCN(C(=O)c2cc3ccccc3n2Cc2ccc(Cl)cc2)CC1", "value_kind": "pIC50", "endpoint_result": 6.00}
{"structure_smiles_string": "O=C(NCCc1ccncc1)C1CCN(C(=O)c2ccccc2Nc2ccc(Cl)cc2)CC1", "value_kind": "pIC50", "endpoint_result": 5.28}
{"structure_smiles_string": "O=C(NCCc1ccncc1)C1CCN(C(=O)c2ccccc2NCc2ccc(Cl)cc2)CC1", "value_kind": "pIC50", "endpoint_result": 5.64}

###

# inhibition at 4 h, 30 µM annotations
target_desc: MDR1 (ABCB1, P-glycoprotein) (Homo sapiens, UniProt P08183)
Sequence (P08183 whole entry): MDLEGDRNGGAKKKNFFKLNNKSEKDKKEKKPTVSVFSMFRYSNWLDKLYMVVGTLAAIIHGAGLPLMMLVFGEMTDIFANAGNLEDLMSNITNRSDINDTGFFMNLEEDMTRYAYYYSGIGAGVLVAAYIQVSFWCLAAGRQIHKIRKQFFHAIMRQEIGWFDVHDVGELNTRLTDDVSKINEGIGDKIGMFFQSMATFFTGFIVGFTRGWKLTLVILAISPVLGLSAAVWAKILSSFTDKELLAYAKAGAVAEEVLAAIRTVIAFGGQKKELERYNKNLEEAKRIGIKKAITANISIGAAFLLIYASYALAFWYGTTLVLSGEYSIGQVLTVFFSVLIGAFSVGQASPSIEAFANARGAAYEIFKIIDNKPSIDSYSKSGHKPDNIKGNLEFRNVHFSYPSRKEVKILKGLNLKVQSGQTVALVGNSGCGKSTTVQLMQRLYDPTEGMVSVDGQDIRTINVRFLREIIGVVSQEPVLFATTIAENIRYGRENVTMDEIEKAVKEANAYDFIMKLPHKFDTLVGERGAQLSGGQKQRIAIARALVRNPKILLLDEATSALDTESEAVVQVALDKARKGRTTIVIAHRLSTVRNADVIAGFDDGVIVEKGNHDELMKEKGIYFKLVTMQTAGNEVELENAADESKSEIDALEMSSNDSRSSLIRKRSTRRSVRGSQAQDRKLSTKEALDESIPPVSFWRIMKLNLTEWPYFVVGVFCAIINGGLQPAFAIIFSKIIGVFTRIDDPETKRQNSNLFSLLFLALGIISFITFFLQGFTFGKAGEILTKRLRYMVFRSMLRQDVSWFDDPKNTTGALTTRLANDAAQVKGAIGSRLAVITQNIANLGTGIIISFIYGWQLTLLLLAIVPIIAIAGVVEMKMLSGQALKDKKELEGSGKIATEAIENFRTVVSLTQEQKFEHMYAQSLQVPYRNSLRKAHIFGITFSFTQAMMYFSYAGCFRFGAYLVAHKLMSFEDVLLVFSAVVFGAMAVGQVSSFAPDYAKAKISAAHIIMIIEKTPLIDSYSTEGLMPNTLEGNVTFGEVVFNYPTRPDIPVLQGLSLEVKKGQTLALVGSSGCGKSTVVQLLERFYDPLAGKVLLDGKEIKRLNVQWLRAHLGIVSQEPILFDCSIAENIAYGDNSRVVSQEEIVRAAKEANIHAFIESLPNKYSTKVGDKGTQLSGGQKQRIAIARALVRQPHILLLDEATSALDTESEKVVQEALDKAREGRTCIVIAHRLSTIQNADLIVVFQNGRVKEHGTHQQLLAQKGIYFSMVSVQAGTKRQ
experiment_description: Inhibition of human MDR1 expressed in MDCK2 cells assessed as increase of rhodamine 123 uptake at 30 uM up to 240 mins relative to 5 uM tariquidar
Format: ADME, cell-based, MDCK-II
condition: MDCK2 cells expressing human MDR1, probe rhodamine 123, read-out: Activity
value_kind: inhibition at 4 h, 30 µM (%)

{"structure_smiles_string": "O=C(NCCc1ccncc1)C1CCN(C(=O)c2ccccc2Nc2ccc(Cl)cc2)CC1", "value_kind": "inhibition at 4 h, 30 µM", "output_unit": "%", "endpoint_result": 47.7}
{"structure_smiles_string": "CN(c1ccc(Cl)cc1)c1ccccc1C(=O)N1CCC(C(=O)NCCc2ccncc2)CC1", "value_kind": "inhibition at 4 h, 30 µM", "output_unit": "%", "endpoint_result": 3.9}
{"structure_smiles_string": "O=C(c1ccc(Cl)cc1)c1ccccc1C(=O)N1CCC(C(=O)NCCc2ccncc2)CC1", "value_kind": "inhibition at 4 h, 30 µM", "output_unit": "%", "endpoint_result": 1.8}
{"structure_smiles_string": "O=C(NCCc1ccncc1)C1CCN(C(=O)c2ccccc2NCc2ccc(Cl)cc2)CC1", "value_kind": "inhibition at 4 h, 30 µM", "output_unit": "%", "endpoint_result": 59.6}
{"structure_smiles_string": "O=C(NCCc1ccncc1)C1CCN(C(=O)c2ccccc2NCc2ccccc2)CC1", "value_kind": "inhibition at 4 h, 30 µM", "output_unit": "%", "endpoint_result": 2.5}
{"structure_smiles_string": "O=C(NCCc1ccncc1)C1CCN(C(=O)c2ccccc2Oc2ccc(Cl)cc2)CC1", "value_kind": "inhibition at 4 h, 30 µM", "output_unit": "%", "endpoint_result": 9.3}
{"structure_smiles_string": "O=C(NCCc1ccncc1)C1CCN(C(=O)c2ccccc2NCCc2ccc(Cl)cc2)CC1", "value_kind": "inhibition at 4 h, 30 µM", "output_unit": "%", "endpoint_result": 30.7}
{"structure_smiles_string": "O=C(NCCc1ccncc1)C1CCN(C(=O)c2ccccc2Cc2ccc(Cl)cc2)CC1", "value_kind": "inhibition at 4 h, 30 µM", "output_unit": "%", "endpoint_result": 22.6}
{"structure_smiles_string": "O=C(NCCc1ccncc1)C1CCN(C(=O)c2ccccc2Nc2ccccc2)CC1", "value_kind": "inhibition at 4 h, 30 µM", "output_unit": "%", "endpoint_result": 10.9}
